I'd appreciate it if you could supply glycan array binding signal (z-score) values for the items below.
Target: Fuc(a1-3)[Gal(b1-4)]GlcNAc(b1-2)Man
Assay: glycan array binding signal (z-score within array); higher = stronger binding
Settings: glycan notation: IUPAC condensed, linker removed
The sample as a whole holds a higher share of the strongest signals than the screen did.

- BINDER: "Clec2 (Mus musculus), Q9JL99 (protein) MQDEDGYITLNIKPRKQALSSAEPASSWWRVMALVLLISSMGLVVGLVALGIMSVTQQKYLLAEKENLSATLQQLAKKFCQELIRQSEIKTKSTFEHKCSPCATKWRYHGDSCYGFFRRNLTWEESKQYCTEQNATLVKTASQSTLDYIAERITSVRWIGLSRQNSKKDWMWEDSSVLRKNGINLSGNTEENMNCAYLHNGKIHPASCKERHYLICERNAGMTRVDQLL"
  glycan array binding signal (z-score): 0.349

Query binder follows.
Lab note: measured glycan array binding signal (z-score) of Gal 1 (Mus musculus), P16045 (protein) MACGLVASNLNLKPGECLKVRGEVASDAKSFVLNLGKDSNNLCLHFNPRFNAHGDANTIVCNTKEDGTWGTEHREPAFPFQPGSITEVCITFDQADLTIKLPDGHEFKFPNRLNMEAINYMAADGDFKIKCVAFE was -0.075
